- Tested On: T1, SEQ ID NO: 346 glycopeptide with TF-antigen at Thr4
- T1 construct: also called T4^TF
- T1 peptide: HGVT(Galβ1‑3GalNAc)SAPDTRPAPGSTAPP
- Assay Protocol: ELISA on coated glycopeptide, antibody 0.01 mg/ml, mean of 3
Where no end group is shown, it is not given here. Galβ1‑3GalNAc = TF-antigen

>  <Binder>
M20 (antibody, human IgG1, kappa, V domains shown, Human IgG) VH: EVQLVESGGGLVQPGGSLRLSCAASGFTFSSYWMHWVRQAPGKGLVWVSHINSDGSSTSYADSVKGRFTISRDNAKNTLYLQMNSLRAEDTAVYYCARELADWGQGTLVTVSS VL: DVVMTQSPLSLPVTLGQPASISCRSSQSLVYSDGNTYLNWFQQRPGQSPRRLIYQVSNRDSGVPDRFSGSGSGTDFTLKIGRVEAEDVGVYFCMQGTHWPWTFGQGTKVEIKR

>  <Quantity Unit>
absorbance

>  <ELISA absorbance at 450 nm>
2

$$$$
>  <Binder>
M21 (antibody, human IgG1, kappa, V domains shown, Human IgG) VH: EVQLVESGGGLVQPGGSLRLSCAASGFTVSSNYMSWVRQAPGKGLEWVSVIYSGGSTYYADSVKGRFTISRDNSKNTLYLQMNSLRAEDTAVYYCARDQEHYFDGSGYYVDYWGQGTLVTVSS VL: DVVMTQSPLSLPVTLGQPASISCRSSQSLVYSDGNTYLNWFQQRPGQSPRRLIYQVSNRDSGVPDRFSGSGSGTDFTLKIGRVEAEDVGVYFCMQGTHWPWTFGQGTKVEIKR

>  <Quantity Unit>
absorbance

>  <ELISA absorbance at 450 nm>
2.1

$$$$
>  <Binder>
M22 (antibody, human IgG1, kappa, V domains shown, Human IgG) VH: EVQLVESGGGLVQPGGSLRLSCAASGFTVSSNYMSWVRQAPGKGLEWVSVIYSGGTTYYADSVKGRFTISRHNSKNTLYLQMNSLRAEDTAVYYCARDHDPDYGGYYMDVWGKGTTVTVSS VL: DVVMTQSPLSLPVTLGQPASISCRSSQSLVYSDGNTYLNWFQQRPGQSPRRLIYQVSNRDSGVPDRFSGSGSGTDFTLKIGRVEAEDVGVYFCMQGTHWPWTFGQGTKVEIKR

>  <Quantity Unit>
absorbance

>  <ELISA absorbance at 450 nm>
2.2

$$$$
>  <Binder>
M7 (antibody, human IgG1, kappa, V domains shown, Human IgG) VH: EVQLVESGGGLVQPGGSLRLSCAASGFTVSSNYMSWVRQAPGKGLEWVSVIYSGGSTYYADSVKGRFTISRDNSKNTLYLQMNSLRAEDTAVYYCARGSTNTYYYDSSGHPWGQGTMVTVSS VL: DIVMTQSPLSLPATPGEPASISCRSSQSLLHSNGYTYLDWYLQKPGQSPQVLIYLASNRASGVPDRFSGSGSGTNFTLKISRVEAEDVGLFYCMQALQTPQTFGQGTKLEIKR

>  <Quantity Unit>
absorbance

>  <ELISA absorbance at 450 nm>
0.1

$$$$
